Reference source for all entries: paper PMC9405847

Recorded IC50 by entry
biological target: human D3 dopaminergic receptor (D3R) (Homo sapiens); test: Competition binding of [3H]-spiperone and GTP-shift (functional binding) in membranes of recombinant Chem-1 cells; settings: IC50 (MgCl2 + CaCl2), D3R, medium I: 5 mM MgCl2 and 1.5 mM CaCl2; [3H]-spiperone 0.5 nM; 95% confidence interval in parentheses
Sequence (P35462 whole entry): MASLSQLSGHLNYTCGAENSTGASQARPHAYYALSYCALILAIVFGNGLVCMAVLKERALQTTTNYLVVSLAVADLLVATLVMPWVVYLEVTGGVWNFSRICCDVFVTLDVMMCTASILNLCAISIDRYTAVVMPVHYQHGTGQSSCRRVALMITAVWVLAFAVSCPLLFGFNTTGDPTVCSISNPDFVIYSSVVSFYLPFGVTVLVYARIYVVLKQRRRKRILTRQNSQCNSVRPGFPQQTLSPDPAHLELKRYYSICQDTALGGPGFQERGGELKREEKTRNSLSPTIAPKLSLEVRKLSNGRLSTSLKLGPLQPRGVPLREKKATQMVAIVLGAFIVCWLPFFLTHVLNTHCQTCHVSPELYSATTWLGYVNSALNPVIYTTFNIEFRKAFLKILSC

Worked cases, IC50 given:
Field IC50 (entry "COc1ccccc1N1CCN(Cc2ccc(NS(=O)(=O)c3cc4c(cc3C)OCO4)cc2)CC1" ) reads 760 nM

Field IC50 (entry "COc1ccccc1N1CCN(Cc2ccc(NS(=O)(=O)c3ccc4c(c3)OCO4)cc2)CC1" ) reads 230 nM

Field IC50 (entry "Cc1cc2c(cc1S(=O)(=O)Nc1ccc(CN3CCN(c4ccccc4)CC3)cc1)OCO2" ) reads 1100 nM

Field IC50 (entry "O=S(=O)(Nc1ccc(CN2CCN(c3cccc(Cl)c3Cl)CC2)cc1)c1ccc2c(c1)OCO2" ) reads 110 nM

Field IC50 (entry "Cc1cc2c(cc1S(=O)(=O)Nc1ccc(CN3CCN(c4cccc(Cl)c4Cl)CC3)cc1)OCO2" ) reads 750 nM

Could you now look at the following compound, please?
Field IC50 (entry "O=S(=O)(Nc1ccc(CN2CCN(c3ccccc3)CC2)cc1)c1ccc2c(c1)OCO2" ) reads 420 nM
